assay: Selectivity index, ratio of CC50 for mouse J774A.1 cells to IC50 for Leishmania donovani MHOM/IN/80/Dd8 amastigotes; format: functional
Returns: string. Value is Met if measured Selectivity Index is below 7, and Not met if it is greater than or equal to it.

Some solved cases for reference:
# Compound, Class label
measured = [
    ("Fc1ccc(F)c(COC(CCn2ccnc2)c2cccs2)c1 (stereo not given)", "Met"),
    ("Fc1ccc(F)c(COC(CCn2ccnc2)c2ccco2)c1 (stereo not given)", "Met"),
    ("Clc1ccc(COC(Cn2ccnc2)c2ccc(Cl)cc2Cl)c(Cl)c1 (stereo not given) [MICONAZOLE]", "Met"),
]

As a next step, examine the compound that follows.
Find out if reported Selectivity Index for Clc1ccc(Cl)c(COC(CCn2cncn2)c2ccco2)c1 (stereo not given) is less than 7 Met

* * *

assay: Selectivity index, ratio of CC50 for mouse J774A.1 cells to IC50 for Leishmania donovani MHOM/IN/80/Dd8 amastigotes; assay type: functional
Readout label: Selectivity Index

# Compound, Readout label, Readout value
measured = [
    ("Fc1ccc(COC(CCn2ccnc2)c2ccco2)c(F)c1 (stereo unspecified)", "Selectivity Index", 6.86),
    ("Clc1cccc(COC(CCn2ccnc2)c2ccco2)c1 (stereo unspecified)", "Selectivity Index", 19.8),
    ("Clc1ccc(COC(CCn2ccnc2)c2ccco2)c(Cl)c1 (stereo unspecified)", "Selectivity Index", 10.9),
    ("Fc1ccc(COC(CCn2ccnc2)c2cccs2)c(F)c1 (stereo unspecified)", "Selectivity Index", 4.4),
    ("Clc1cccc(COC(CCn2ccnc2)c2cccs2)c1 (stereo unspecified)", "Selectivity Index", 8.93),
]

Hello, I would appreciate it if you could give Selectivity Index for each entry below.
1. Clc1cccc(COC(CCn2cncn2)c2cccs2)c1 (stereo unspecified)
2. Clc1ccc(COC(CCn2ccnc2)c2cccs2)c(Cl)c1 (stereo unspecified)

1. 1.93
2. 5.65

Hello, I would appreciate it if you could give Selectivity Index for each entry below.
1. CCCCCCCCCCCCCCCCOP(=O)([O-])OCC[N+](C)(C)C
2. Clc1cccc(COC(CCn2cncn2)c2ccco2)c1 (stereo unspecified)
3. Clc1ccc(Cl)c(COC(CCn2ccnc2)c2ccco2)c1 (stereo unspecified)
4. Clc1ccc(Cl)c(COC(CCn2ccnc2)c2cccs2)c1 (stereo unspecified)

[0.24, 3.17, 7.15, 2.66]

Numbers sourced from ChEMBL document CHEMBL1772980.
